The origin of these recorded values is patent US12091399B2.

- experimental target: PKK in kaolin activated human platelet poor plasma (Homo sapiens (Human), UniProt P03952)
- Sequence (P03952 391-638): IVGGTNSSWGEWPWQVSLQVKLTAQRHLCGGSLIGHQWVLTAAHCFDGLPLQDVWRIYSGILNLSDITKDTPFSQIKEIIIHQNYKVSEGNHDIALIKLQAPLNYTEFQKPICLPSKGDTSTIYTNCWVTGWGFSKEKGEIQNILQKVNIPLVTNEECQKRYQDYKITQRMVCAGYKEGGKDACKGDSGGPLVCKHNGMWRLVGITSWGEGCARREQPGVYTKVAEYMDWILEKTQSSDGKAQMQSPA
- Sequence (P03952 20-390 partner): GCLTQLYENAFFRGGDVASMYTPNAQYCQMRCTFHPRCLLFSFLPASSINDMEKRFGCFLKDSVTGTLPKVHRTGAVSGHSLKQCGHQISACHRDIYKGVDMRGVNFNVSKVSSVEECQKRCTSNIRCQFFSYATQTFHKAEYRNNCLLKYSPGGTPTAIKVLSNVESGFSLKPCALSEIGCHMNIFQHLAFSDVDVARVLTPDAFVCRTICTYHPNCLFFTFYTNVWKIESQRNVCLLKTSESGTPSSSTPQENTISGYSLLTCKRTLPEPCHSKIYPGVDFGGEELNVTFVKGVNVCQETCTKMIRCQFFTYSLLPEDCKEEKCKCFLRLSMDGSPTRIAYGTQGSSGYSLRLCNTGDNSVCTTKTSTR
- assay comment: Inhibition of PKK in kaolin activated human PPP
- Assay type: biochemical
- condition description: global fit over 25, 75, 250, 750 μg/mL kaolin, 37° C.
assay endpoint: IC90
Please format your answer as a value with the unit trailing.

Would you mind telling me what IC90 value was observed for Cc1nc(N2CC3CC3C2)ccc1Cn1cc(C(=O)NCc2cc(Cl)ccc2-n2cnnn2)c(-c2cnn(C)c2)n1 (stereo not shown) [Example 42] ?
0.257 µM

# query: IC90 of entry Cc1nc(N2CC3CC3C2)ccc1Cn1cc(C(=O)NCc2cc(Cl)ccc2-n2cnnn2)c(C(F)F)n1 (stereo not shown) [Example 9]
0.239 µM

Recorded IC90 for Cc1ccc(-n2cnnn2)c(CNC(=O)c2cnn(Cc3ccc(N4CC5CC5C4)nc3C)c2)c1 (stereo not shown) [Example 5] , please?
0.316 µM

Recorded IC90 of Cc1nc(N2CC3CC3C2)ccc1Cn1cc(C(=O)NCc2cc(Cl)ccc2-n2cnnn2)cn1 (stereo not shown) [Example 1] , please.
0.202 µM

What does the record list as IC90 for Cc1nc(N2CC3C(C2)C3(F)F)ccc1Cn1cc(C(=O)NCc2cc(Cl)ccc2-n2cnnn2)cn1 (stereo not shown) [Example 6] ?
0.184 µM

Any idea what its IC90 is? The compound is Cc1nc(N2CC3(C2)CC3(F)F)ccc1Cn1cc(C(=O)NCc2cc(Cl)ccc2-n2cnnn2)cn1 [Example 54]
0.969 µM

I have this compound here, Cc1nc(N2CC3CC3C2)ccc1Cn1cc(C(=O)NCc2cc(Cl)ccc2-n2cnnn2)c(Br)n1 (stereo not shown) [Example 49] , and I need its recorded IC90.
0.932 µM
